# STUDY SYSTEM: Indoleamine 2,3-dioxygenase 1 (Homo sapiens, UniProt P14902)
# TEST METHOD NOTES: Inhibition of recombinant human N-terminus IDO1 expressed in Escherichia coli assessed as N-formylkynurenine formation at 1 uM using L-tryptophan as substrate measured after 180 mins by UV absorbance based assay
# Sequence (P14902 whole entry, looked up): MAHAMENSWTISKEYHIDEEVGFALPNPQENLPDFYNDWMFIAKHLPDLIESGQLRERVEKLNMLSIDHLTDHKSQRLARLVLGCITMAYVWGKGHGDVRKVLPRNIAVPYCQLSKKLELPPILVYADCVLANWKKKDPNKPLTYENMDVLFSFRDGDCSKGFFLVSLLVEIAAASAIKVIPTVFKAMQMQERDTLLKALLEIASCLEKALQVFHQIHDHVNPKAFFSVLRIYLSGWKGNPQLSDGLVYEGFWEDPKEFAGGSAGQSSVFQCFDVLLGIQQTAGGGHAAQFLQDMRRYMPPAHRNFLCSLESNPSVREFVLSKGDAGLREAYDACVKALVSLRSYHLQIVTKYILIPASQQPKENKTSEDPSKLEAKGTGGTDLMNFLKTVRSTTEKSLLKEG
For each of the molecules below, state its inhibition.
Answers are plain numbers, in %.

Worked examples follow.
SMILES STRUCTURE	STUDY SYSTEM	READOUT UNITS	inhibition
Cc1nc(NCc2ccc(C(=O)O)cc2)c2cn[nH]c2n1	Indoleamine 2,3-dioxygenase 1 (Homo sapiens, UniProt P14902)	%	3
O=C(CNc1cc(Br)cc2[nH]ncc12)NC1CCOCC1	Indoleamine 2,3-dioxygenase 1 (Homo sapiens, UniProt P14902)	%	4
Cc1nc(NCc2cccc(C(=O)O)c2)c2cn[nH]c2n1	Indoleamine 2,3-dioxygenase 1 (Homo sapiens, UniProt P14902)	%	3
O=C(O)c1cccc(CNc2ncnc3[nH]ncc23)c1	Indoleamine 2,3-dioxygenase 1 (Homo sapiens, UniProt P14902)	%	2

Please state inhibition for every molecule in the list that follows.
1. O=C(CNc1cc(Br)cc2[nH]ncc12)Nc1ccc(C(=O)O)cc1
2. O=C(O)c1ccc(CNc2ncnc3[nH]ncc23)cc1
3. O=C(O)c1ccc(CNc2cc(Br)cc3[nH]ncc23)cc1

Reply |
1. 3
2. 3
3. 19

====

# STUDY SYSTEM: Indoleamine 2,3-dioxygenase 1 (Homo sapiens)
# TEST METHOD NOTES: Inhibition of recombinant human N-terminus IDO1 expressed in Escherichia coli assessed as N-formylkynurenine formation at 10 uM using L-tryptophan as substrate measured after 180 mins by UV absorbance based assay
# inhibition >= 10% gives true, anything below gives false

COMPOUND	LABEL CLASS
O=C(O)c1ccc(C(O)CNc2cc(Br)cc3[nH]ncc23)cc1 (configuration not stated)	true
O=C(CNc1cc(Br)cc2[nH]ncc12)NC1CCOCC1	false
O=C(O)c1ccc(CNc2cccc3[nH]ncc23)cc1	false
O=C(O)c1ccc(C(CO)Nc2cc(Br)cc3[nH]ncc23)cc1 (configuration not stated)	true
O=C(O)c1ccc(CNc2ncnc3[nH]ncc23)cc1	false

Ask | Does "Cc1ccc(CNc2cc(Br)cc3[nH]ncc23)cc1" have a reported inhibition of at least 10%?
Reply | true

Ask | Does "O=C(O)c1ccc(COc2cc(Br)cc3[nH]ncc23)cc1" have a reported inhibition of at least 10%?
Reply | true

Ask | Does "O=C(O)c1cc(CNc2cc(Br)cc3[nH]ncc23)ccc1O" have a reported inhibition of at least 10%?
Reply | true

Ask | Does "O=C(CNc1cc(Br)cc2[nH]ncc12)Nc1ccc(C(=O)O)cc1" have a reported inhibition of at least 10%?
Reply | true

Ask | Does "O=C(O)c1cccc(CNc2ncnc3[nH]ncc23)c1" have a reported inhibition of at least 10%?
Reply | false

Ask | Does "Oc1ccc(CNc2cc(Br)cc3[nH]ncc23)cc1" have a reported inhibition of at least 10%?
Reply | true

====

# STUDY SYSTEM: Indoleamine 2,3-dioxygenase 1 (Homo sapiens, UniProt P14902)
# TEST METHOD NOTES: Inhibition of recombinant human N-terminus IDO1 expressed in Escherichia coli assessed as N-formylkynurenine formation using L-tryptophan as substrate measured after 180 mins by UV absorbance based assay
# Sequence (P14902 whole entry): as the sequence (P14902 whole entry, looked up) above
QUANTITY KIND: pIC50
Answers are plain numbers, as −log10 of the molar value.

# pIC50 of "Oc1ccc(CNc2cc(Br)cc3[nH]ncc23)cc1" = 5.28

====

# STUDY SYSTEM: UniProt P14902
# TEST METHOD NOTES: Inhibition of recombinant human N-terminus IDO1 expressed in Escherichia coli assessed as N-formylkynurenine formation at 10 uM using L-tryptophan as substrate measured after 180 mins by UV absorbance based assay
For each of the compounds below, state its inhibition.
Numbers only, in %.

Worked examples follow.
SMILES STRUCTURE	QUANTITY KIND	MEASURED NUMBER
O=C(O)c1cccc(COc2cc(Br)cc3[nH]ncc23)c1	inhibition	7
Cc1nc(NCc2cccc(C(=O)O)c2)c2cn[nH]c2n1	inhibition	5
Oc1ccccc1CNc1cc(Br)cc2[nH]ncc12	inhibition	41
NS(=O)(=O)NCCNc1nonc1/C(=N/O)Nc1ccc(F)c(Br)c1	inhibition	100
Clc1ccc(CNc2cc(Br)cc3[nH]ncc23)cc1	inhibition	42

Please state inhibition for every compound in the list that follows.
1. O=C(O)Cc1ccc(CNc2cc(Br)cc3[nH]ncc23)cc1
2. Cc1nc(NCc2ccc(C(=O)O)cc2)c2cn[nH]c2n1
3. O=C(O)c1cccc(CNc2cc(Br)cc3[nH]ncc23)c1
4. Brc1cc(NCc2ccccc2)c2cn[nH]c2c1

Reply |
[27, 5, 21, 37]

====

# STUDY SYSTEM: Indoleamine 2,3-dioxygenase 1 (Homo sapiens, UniProt P14902)
# TEST METHOD NOTES: Inhibition of recombinant human N-terminus IDO1 expressed in Escherichia coli assessed as N-formylkynurenine formation at 100 uM using L-tryptophan as substrate measured after 180 mins by UV absorbance based assay
QUANTITY KIND: inhibition (%)
Answers are plain numbers, in %.

Please state inhibition for every molecule in the list that follows.
1. O=C(O)Cc1ccc(CNc2cc(Br)cc3[nH]ncc23)cc1
2. Oc1ccc(CNc2cc(Br)cc3[nH]ncc23)cc1

Reply |
1. 79
2. 100

====

# STUDY SYSTEM: Indoleamine 2,3-dioxygenase 1 (Homo sapiens, UniProt P14902)
# TEST METHOD NOTES: Inhibition of recombinant human N-terminus IDO1 expressed in Escherichia coli assessed as N-formylkynurenine formation at 100 uM using L-tryptophan as substrate measured after 180 mins by UV absorbance based assay
For each of the compounds below, state its inhibition.
Numbers only, in %.

COMPOUND	QUANTITY KIND	MEASURED NUMBER
Oc1ccccc1CNc1cc(Br)cc2[nH]ncc12	inhibition	100
O=C(O)c1ccc(CNc2cccc3[nH]ncc23)cc1	inhibition	24
Brc1cc(NCc2ccccc2)c2cn[nH]c2c1	inhibition	100
Cc1ccc(CNc2cc(Br)cc3[nH]ncc23)cc1	inhibition	84
O=C(O)c1cc(CNc2cc(Br)cc3[nH]ncc23)ccc1O	inhibition	88

Please state inhibition for every compound in the list that follows.
1. O=C(O)c1ccc(CNc2ncnc3[nH]ncc23)cc1
2. Clc1ccc(CNc2cc(Br)cc3[nH]ncc23)cc1
3. O=C(O)c1cccc(COc2cc(Br)cc3[nH]ncc23)c1
4. O=C(O)c1cccc(CNc2ncnc3[nH]ncc23)c1

Reply |
1. 9
2. 100
3. 40
4. 7

====

# STUDY SYSTEM: Indoleamine 2,3-dioxygenase 1 (Homo sapiens, UniProt P14902)
# TEST METHOD NOTES: Inhibition of recombinant human N-terminus IDO1 expressed in Escherichia coli assessed as N-formylkynurenine formation at 100 uM using L-tryptophan as substrate measured after 180 mins by UV absorbance based assay
For each of the compounds below, state its inhibition.
Numbers only, in %.

Worked examples follow.
COMPOUND	STUDY SYSTEM	READOUT UNITS	MEASURED NUMBER
Cc1nc(NCc2cccc(C(=O)O)c2)c2cn[nH]c2n1	Indoleamine 2,3-dioxygenase 1 (Homo sapiens, UniProt P14902)	%	32
O=C(CNc1cc(Br)cc2[nH]ncc12)NC1CCOCC1	Indoleamine 2,3-dioxygenase 1 (Homo sapiens, UniProt P14902)	%	34
O=C(O)c1ccc(COc2cc(Br)cc3[nH]ncc23)cc1	Indoleamine 2,3-dioxygenase 1 (Homo sapiens, UniProt P14902)	%	69
O=C(O)c1ccc(C(O)CNc2cc(Br)cc3[nH]ncc23)cc1 (centres undefined)	Indoleamine 2,3-dioxygenase 1 (Homo sapiens, UniProt P14902)	%	73
O=C(CNc1cc(Br)cc2[nH]ncc12)Nc1ccc(C(=O)O)cc1	Indoleamine 2,3-dioxygenase 1 (Homo sapiens, UniProt P14902)	%	37

Please state inhibition for every compound in the list that follows.
1. Cc1nc(NCc2ccc(C(=O)O)cc2)c2cn[nH]c2n1
2. O=C(O)c1cccc(CNc2cc(Br)cc3[nH]ncc23)c1

Reply |
37
74

# inhibition of O=C(O)c1ccc(C(CO)Nc2cc(Br)cc3[nH]ncc23)cc1 (centres undefined) = 68

Provenance of the data: ChEMBL document CHEMBL3864154
